// values below are reported Selectivity
- system-under-test: Monoamine transporters; Norepininephrine & dopamine (Rattus norvegicus) (UniProt P23977+Q9WTR4)
- procedure-details: Selectivity index for norepinephrine and dopamine transporters
- Type: protein assay

compound: CCCc1ccc(C2C[C@H]3CCC([C@H]2C(=O)OC)N3C/C=C/I)cc1 (stereo partly drawn)
Selectivity: 1.5

compound: COC(=O)[C@@H]1C2CCC(C[C@@H]1c1ccc(C)cc1)N2C/C=C/I (stereo partly drawn)
Selectivity: > 58

compound: C#CCN1C2CC[C@@H]1CC(c1ccc(I)cc1)[C@@H]2C(=O)OC (stereo partly drawn)
Selectivity: > 71

----------
- system-under-test: Sodium-dependent dopamine transporter (Rattus norvegicus, UniProt P23977)
- Sequence (P23977 whole entry): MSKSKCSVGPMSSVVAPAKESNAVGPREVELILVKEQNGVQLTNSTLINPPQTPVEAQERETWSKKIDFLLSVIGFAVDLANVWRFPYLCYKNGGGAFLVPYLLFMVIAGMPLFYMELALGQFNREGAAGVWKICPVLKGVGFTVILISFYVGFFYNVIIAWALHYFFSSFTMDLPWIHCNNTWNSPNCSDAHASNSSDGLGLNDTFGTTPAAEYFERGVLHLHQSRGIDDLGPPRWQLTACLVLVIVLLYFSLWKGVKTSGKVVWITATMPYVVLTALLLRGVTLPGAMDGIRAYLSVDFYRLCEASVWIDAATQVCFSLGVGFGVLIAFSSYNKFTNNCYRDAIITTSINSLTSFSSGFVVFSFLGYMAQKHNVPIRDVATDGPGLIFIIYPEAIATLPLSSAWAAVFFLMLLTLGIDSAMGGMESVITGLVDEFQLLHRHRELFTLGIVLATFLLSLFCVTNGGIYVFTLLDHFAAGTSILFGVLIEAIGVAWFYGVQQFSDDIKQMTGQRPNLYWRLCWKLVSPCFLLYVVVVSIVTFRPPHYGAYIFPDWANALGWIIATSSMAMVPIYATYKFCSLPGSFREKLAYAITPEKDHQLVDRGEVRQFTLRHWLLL

compound: CCCc1ccc(C2C[C@H]3CCC([C@H]2C(=O)OC)N3C/C=C/I)cc1 (stereo partly drawn)
Ki (nM): 500
//
compound: C=C(Br)CN1C2CC[C@@H]1CC(c1ccc(I)cc1)[C@@H]2C(=O)OC (stereo partly drawn)
Ki (nM): 30
//
compound: COC(=O)[C@H]1C(c2ccc(I)cc2)C[C@H]2CCC1N2C/C=C/I (stereo partly drawn)
Ki (nM): 30

----------
Quick note: these are Ki numbers for system: UniProt:Q9WTR4

compound: COC(=O)[C@H]1C(c2ccc(C(C)C)cc2)C[C@H]2CCC1N2C/C=C/I (stereo partly drawn)
system-under-test: UniProt:Q9WTR4
Ki: > 1000 nM
--
compound: COC(=O)[C@H]1C(c2ccc(I)cc2)C[C@H]2CCC1N2C/C=C/I (stereo partly drawn)
system-under-test: UniProt:Q9WTR4
Ki: 295 nM
--
compound: C#CCN1C2CC[C@@H]1CC(c1ccc(I)cc1)[C@@H]2C(=O)OC (stereo partly drawn)
system-under-test: UniProt:Q9WTR4
Ki: > 1000 nM

----------
Quick note: these are log10 of Ki numbers for system: Sodium-dependent dopamine transporter (Rattus norvegicus)
readout: log10 of Ki (log10 of the value in nM)

compound: COC(=O)[C@@H]1C2CCC(C[C@@H]1c1ccc(C)cc1)N2C/C=C/I (some centres undefined)
log10 of Ki: 1.23

compound: COC(=O)[C@H]1C(c2ccccc2)C[C@H]2CCC1N2C/C=C/I (some centres undefined)
log10 of Ki: 2.05

compound: COC(=O)[C@@H]1C2CCC(C[C@@H]1c1ccc(Cl)c(Cl)c1)N2C/C=C/I (some centres undefined)
log10 of Ki: 1.46

compound: COC(=O)[C@@H]1C2CC[C@H](C[C@@H]1c1ccc(I)cc1)N2C
log10 of Ki: 1.43

compound: C#CCN1C2CC[C@@H]1CC(c1ccc(I)cc1)[C@@H]2C(=O)OC (some centres undefined)
log10 of Ki: 1.15

compound: COC(=O)[C@H]1C(c2ccc(C(C)C)cc2)C[C@H]2CCC1N2C/C=C/I (some centres undefined)
log10 of Ki: 2.70

compound: COC(=O)[C@@H]1C2CCC(C[C@@H]1c1ccc(I)cc1)N2Cc1ccccc1 (some centres undefined)
log10 of Ki: 1.62

compound: C/C=C/CN1C2CC[C@@H]1CC(c1ccc(I)cc1)[C@@H]2C(=O)OC (some centres undefined)
log10 of Ki: 1.18

compound: COC(=O)[C@H]1C(c2ccc(I)cc2)C[C@H]2CCC1N2Cc1ccccc1C (some centres undefined)
log10 of Ki: 1.97

----------
- system-under-test: Monoamine transporters; Norepininephrine & dopamine (Rattus norvegicus) (UniProt P23977+Q9WTR4)
- procedure-details: Selectivity index for norepinephrine and dopamine transporters
- Format: protein assay
// label = t if Selectivity is not less than 10, otherwise f

compound: COC(=O)[C@H]1C(c2ccc(I)cc2)C[C@H]2CCC1N2Cc1ccccc1C (some centres undefined)
class: t
//
compound: C=C(Br)CN1C2CC[C@@H]1CC(c1ccc(I)cc1)[C@@H]2C(=O)OC (some centres undefined)
class: t
//
compound: COC(=O)[C@@H]1C2CC[C@H](C[C@@H]1c1ccc(I)cc1)N2C
class: f
//
compound: C/C=C/CN1C2CC[C@@H]1CC(c1ccc(I)cc1)[C@@H]2C(=O)OC (some centres undefined)
class: t
//
compound: COC(=O)[C@@H]1C2CCC(C[C@@H]1c1ccc(Cl)c(Cl)c1)N2C/C=C/I (some centres undefined)
class: t
//
compound: COC(=O)[C@@H]1C2CCC(C[C@@H]1c1ccc(I)cc1)N2Cc1ccccc1 (some centres undefined)
class: t

----------
// values below are reported Ki
- system-under-test: Norepinephrine transporter (Rattus norvegicus)
- Sequence (Q9WTR4 whole entry): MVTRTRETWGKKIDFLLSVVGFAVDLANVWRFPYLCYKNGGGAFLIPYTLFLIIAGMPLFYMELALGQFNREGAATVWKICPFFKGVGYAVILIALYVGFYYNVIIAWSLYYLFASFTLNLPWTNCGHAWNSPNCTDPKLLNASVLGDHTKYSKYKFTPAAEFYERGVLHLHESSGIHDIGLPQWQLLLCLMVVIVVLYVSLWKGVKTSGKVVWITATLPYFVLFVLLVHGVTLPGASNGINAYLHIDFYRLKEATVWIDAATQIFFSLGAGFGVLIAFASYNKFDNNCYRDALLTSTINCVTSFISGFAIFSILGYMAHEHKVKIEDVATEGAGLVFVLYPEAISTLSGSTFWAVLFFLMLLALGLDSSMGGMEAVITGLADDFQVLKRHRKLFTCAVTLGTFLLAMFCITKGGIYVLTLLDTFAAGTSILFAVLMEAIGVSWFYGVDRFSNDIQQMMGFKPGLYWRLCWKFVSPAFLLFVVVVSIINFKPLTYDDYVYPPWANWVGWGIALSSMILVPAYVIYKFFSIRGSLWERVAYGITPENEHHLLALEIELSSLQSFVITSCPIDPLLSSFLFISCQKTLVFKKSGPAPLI

compound: COC(=O)[C@H]1C(c2ccccc2)C[C@H]2CCC1N2C/C=C/I (some centres undefined)
system-under-test: Norepinephrine transporter (Rattus norvegicus)
unit-name: µM
comparison-operator: >
Ki: 1

compound: CCCc1ccc(C2C[C@H]3CCC([C@H]2C(=O)OC)N3C/C=C/I)cc1 (some centres undefined)
system-under-test: Norepinephrine transporter (Rattus norvegicus)
unit-name: µM
comparison-operator: =
Ki: 0.75

compound: COC(=O)[C@@H]1C2CC[C@H](C[C@@H]1c1ccc(I)cc1)N2C
system-under-test: Norepinephrine transporter (Rattus norvegicus)
unit-name: µM
comparison-operator: =
Ki: 0.08

compound: COC(=O)[C@@H]1C2CCC(C[C@@H]1c1ccc(Cl)c(Cl)c1)N2C/C=C/I (some centres undefined)
system-under-test: Norepinephrine transporter (Rattus norvegicus)
unit-name: µM
comparison-operator: =
Ki: 0.5

compound: COC(=O)[C@@H]1C2CCC(C[C@@H]1c1ccc(I)cc1)N2Cc1ccccc1 (some centres undefined)
system-under-test: Norepinephrine transporter (Rattus norvegicus)
unit-name: µM
comparison-operator: =
Ki: 0.6

compound: C=C(Br)CN1C2CC[C@@H]1CC(c1ccc(I)cc1)[C@@H]2C(=O)OC (some centres undefined)
system-under-test: Norepinephrine transporter (Rattus norvegicus)
unit-name: µM
comparison-operator: >
Ki: 1

compound: C/C=C/CN1C2CC[C@@H]1CC(c1ccc(I)cc1)[C@@H]2C(=O)OC (some centres undefined)
system-under-test: Norepinephrine transporter (Rattus norvegicus)
unit-name: µM
comparison-operator: =
Ki: 0.4

compound: COC(=O)[C@@H]1C2CCC(C[C@@H]1c1ccc(C)cc1)N2C/C=C/I (some centres undefined)
system-under-test: Norepinephrine transporter (Rattus norvegicus)
unit-name: µM
comparison-operator: >
Ki: 1

compound: COC(=O)[C@H]1C(c2ccc(I)cc2)C[C@H]2CCC1N2Cc1ccccc1C (some centres undefined)
system-under-test: Norepinephrine transporter (Rattus norvegicus)
unit-name: µM
comparison-operator: >
Ki: 1

----------
pKi: −log10 of the molar value.
Quick note: these are pKi numbers for system: Sodium-dependent serotonin transporter (Rattus norvegicus)
Sequence (P31652 whole entry): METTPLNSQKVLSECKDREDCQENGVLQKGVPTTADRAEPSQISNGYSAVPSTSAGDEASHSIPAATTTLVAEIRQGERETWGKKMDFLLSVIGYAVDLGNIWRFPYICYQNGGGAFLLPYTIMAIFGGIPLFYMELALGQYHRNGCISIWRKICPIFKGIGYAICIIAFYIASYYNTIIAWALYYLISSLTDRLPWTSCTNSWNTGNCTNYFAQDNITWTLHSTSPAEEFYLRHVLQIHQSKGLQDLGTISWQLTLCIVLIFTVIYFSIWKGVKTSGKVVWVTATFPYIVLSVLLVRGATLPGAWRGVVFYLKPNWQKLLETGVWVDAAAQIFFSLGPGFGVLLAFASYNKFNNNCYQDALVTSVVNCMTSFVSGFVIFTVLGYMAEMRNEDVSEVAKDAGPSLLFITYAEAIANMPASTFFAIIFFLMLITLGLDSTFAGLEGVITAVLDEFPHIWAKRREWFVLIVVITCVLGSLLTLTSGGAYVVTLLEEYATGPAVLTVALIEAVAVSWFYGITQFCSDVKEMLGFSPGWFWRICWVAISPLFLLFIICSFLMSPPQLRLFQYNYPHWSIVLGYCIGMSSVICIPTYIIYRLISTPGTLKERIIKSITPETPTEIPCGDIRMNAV

compound: COC(=O)[C@@H]1C2CCC(C[C@@H]1c1ccc(Cl)c(Cl)c1)N2C/C=C/I (some centres not stated)
pKi: 7.30
//
compound: COC(=O)[C@H]1C(c2ccc(I)cc2)C[C@H]2CCC1N2C/C=C/I (some centres not stated)
pKi: 6.02
//
compound: COC(=O)[C@H]1C(c2ccccc2)C[C@H]2CCC1N2C/C=C/I (some centres not stated)
pKi: 7.00
//
compound: COC(=O)[C@@H]1C2CCC(C[C@@H]1c1ccc(I)cc1)N2Cc1ccccc1 (some centres not stated)
pKi: 7.00
//
compound: COC(=O)[C@@H]1C2CCC(C[C@@H]1c1ccc(C)cc1)N2C/C=C/I (some centres not stated)
pKi: 6.30
//
compound: C/C=C/CN1C2CC[C@@H]1CC(c1ccc(I)cc1)[C@@H]2C(=O)OC (some centres not stated)
pKi: 7.12
//
compound: COC(=O)[C@H]1C(c2ccc(C(C)C)cc2)C[C@H]2CCC1N2C/C=C/I (some centres not stated)
pKi: 6.35
//
compound: C#CCN1C2CC[C@@H]1CC(c1ccc(I)cc1)[C@@H]2C(=O)OC (some centres not stated)
pKi: 7.00
//
compound: COC(=O)[C@H]1C(c2ccc(I)cc2)C[C@H]2CCC1N2Cc1ccccc1C (some centres not stated)
pKi: 6.65
//
compound: CCCc1ccc(C2C[C@H]3CCC([C@H]2C(=O)OC)N3C/C=C/I)cc1 (some centres not stated)
pKi: 6.52
//
compound: COC(=O)[C@@H]1C2CC[C@H](C[C@@H]1c1ccc(I)cc1)N2C
pKi: 8.52
//
compound: C=C(Br)CN1C2CC[C@@H]1CC(c1ccc(I)cc1)[C@@H]2C(=O)OC (some centres not stated)
pKi: 6.70

----------
- system-under-test: Monoamine transporters; Norepininephrine & dopamine (Rattus norvegicus) (UniProt P23977+Q9WTR4)
- procedure-details: Selectivity index for norepinephrine and dopamine transporters
- Type: protein assay

molecule: COC(=O)[C@H]1C(c2ccccc2)C[C@H]2CCC1N2C/C=C/I (stereo partly drawn)
Selectivity: > 8.8
//
molecule: COC(=O)[C@H]1C(c2ccc(I)cc2)C[C@H]2CCC1N2C/C=C/I (stereo partly drawn)
Selectivity: 9.8
//
molecule: COC(=O)[C@H]1C(c2ccc(C(C)C)cc2)C[C@H]2CCC1N2C/C=C/I (stereo partly drawn)
Selectivity: > 2
